- System: HCT-116 colon
- method-summary: NCI tumour cell line growth inhibition, 48 h
Where a SMILES comes first, the peptide text is derived from it. The star is where a group is joined. Cbz = O=C(OCc1ccccc1)*
measured-endpoint: TGI

Some solved entries appear below for comparison.
compound	TGI
CCCCCCCCCC(=O)CC(=O)c1c(O)cccc1O	> 100 µM
O=c1[nH]c(-c2ccc(C(F)(F)F)cc2)nc2c1CSCC2	> 100 µM
O=C1C(c2ccccc2)=C(c2ccccc2)C(c2ccc(CCCCCCc3ccc(C4=C(c5ccccc5)C(=O)C(c5ccccc5)=C4c4ccccc4)cc3)cc2)=C1c1ccccc1	> 100 µM
CCC1(C)N=C(C(N)=O)c2ncn(N=C(C)C)c2N1 (stereo unspecified)	> 100 µM
CN(/N=C\c1ccc2ccccc2c1)C1=NCCCCN1	> 100 µM

Param item: NC(CSC(c1ccccc1)(c1ccccc1)c1ccc2ccccc2c1)C(=O)O (stereo unspecified) ; param system: HCT-116 colon; output TGI: 0.958 µM

Param item: CCOC(=O)C(C)NC(=O)C(C)NC(=O)C(C)NC(=O)C(C)NC(=O)C(C)NC(=O)C(C)NC(=O)C(C)NC(=O)OCc1ccccc1 (stereo unspecified) (Cbz-AAAAAAA-OEt; configuration not given here) ; param system: HCT-116 colon; output TGI: > 100 µM

###

- Tested on: CCRF-CEM leukemia
- method-summary: NCI tumour cell line growth inhibition, 48 h
measured-endpoint: TGI

In [3]: df
Out[3]:
                                   compound    result
0  C[C@@H]1CCC2[C@@H](C)C(=O)O[C@@H]3C4C[C@@H]1[C@@]23OO[C@@]4(C)O (stereo not given in full)  > 100 µM

# TGI of COc1ccc(/C=C\c2cc(OC)c(OC)c(OC)c2)c(NS(=O)(=O)c2ccc(C)cc2)c1O = > 100 µM

# TGI of Fc1ccc(C(OCCN2CCC3CCC(C2)N3Cc2cc3ccccc3[nH]2)c2ccc(F)cc2)cc1 (stereo not given) = 4.69 µM

# TGI of COc1cc2c(c(OC)c1OC)C(=O)CC2N (stereo not given) = > 100 µM

###

- Tested on: SK-MEL-2 melanoma
- method-summary: NCI tumour cell line growth inhibition, 48 h
This listing pairs compounds with measured TGI.

                                   compound    measured_target    result
0  O=C1C(c2ccccc2)=C(c2ccccc2)C(c2ccc(CCCCCCc3ccc(C4=C(c5ccccc5)C(=O)C(c5ccccc5)=C4c4ccccc4)cc3)cc2)=C1c1ccccc1  SK-MEL-2 melanoma  > 100 µM
1  COC(=O)C1=C(C(=O)OC)C2(C(=O)OC)OC1(OC)C(C1(C(=O)OC)C(C(=O)OC)=C1C(=O)OC)=C2C(=O)OC (centres undefined)  SK-MEL-2 melanoma  > 100 µM
2  C=C(C)C1/C=C(/C(C)C)CC[C@]2(C)O[C@@H]2CC[C@H](C)CC1=O (some centres undefined)  SK-MEL-2 melanoma  > 100 µM
3              O=c1cccccc1NCCCCNc1cccccc1=O  SK-MEL-2 melanoma  > 100 µM
4  CCNCC(O)c1ccc(N)c([N+](=O)[O-])c1 (centres undefined)  SK-MEL-2 melanoma  > 100 µM
5  COc1ccc(/C=C2\COc3ccc(-c4ccccc4)cc3C2=O)cc1O  SK-MEL-2 melanoma    6.1 µM
6  CC(C)(C)/C(O)=C\c1nc2cc(C(F)(F)F)ccc2[nH]c1=O  SK-MEL-2 melanoma  > 100 µM
7     Oc1ccccc1-n1c(-c2ccccc2)ccc1-c1ccccc1  SK-MEL-2 melanoma   19.4 µM

# TGI of C=C(C)[C@H]1CC/C(C)=C/CCC(C)C(=O)CC/C(CO)=C\[C@@H]1O (some centres undefined) = > 100 µM

###

This listing pairs compounds with measured TGI.
- Tested on: UACC-257 melanoma
- method-summary: NCI tumour cell line growth inhibition, 48 h

Some solved entries appear below for comparison.
>>> print(df.to_string())
                                   compound  measured_endpoint    result
0      NNC(=O)c1n[nH]nc1SSc1n[nH]nc1C(=O)NN                TGI  > 100 µM
1  COC(=O)C1=C(O)C(C(=O)OC)[C@]2(O)[C@H](C(=O)OC)[C@H]1C[C@@H](c1ccc(OC)cc1)[C@H]2C(=O)OC (some centres undefined)                TGI  > 100 µM

# TGI of c1ccc2c3nnc(c2c1)SCCSCCSc1nnc(c2ccccc12)SCCSCCS3 = > 100 µM

# TGI of N#Cc1nc(-c2ccccc2)oc1S(=O)(=O)N1CCOCC1 = 19 µM

###

- System: SW-620 colon
- method-summary: NCI tumour cell line growth inhibition, 48 h
This listing pairs compounds with measured TGI.

Some solved entries appear below for comparison.
compound	measured-target	TGI
CC(C)(C)/C(O)=C\c1nc2cc(C(F)(F)F)ccc2[nH]c1=O	SW-620 colon	> 100 µM
Nc1ncc(Cc2nc3ccccc3s2)s1	SW-620 colon	> 100 µM
CCNCCNc1cc(-c2ccc(F)cc2)c(C#N)c2nc3ccccc3n12	SW-620 colon	10.1 µM
CCCC[C@@H](COC(=O)N(Cc1cccs1)Cc1cccs1)NC(=O)N[C@@H](CC(=O)OC)c1ccc2c(c1)OCO2	SW-620 colon	> 100 µM
O=C1C2=C(c3ccccc31)C(c1ccccc1Cl)N1C(=O)CSC1=N2 (stereo unspecified)	SW-620 colon	> 100 µM

# TGI of O=c1[nH]c(=S)[nH]c(O)c1/C=C1\C=CC=N1 = 23.5 µM

# TGI of Cc1ccc(/C=N/Nc2ncccn2)s1 = > 100 µM

# TGI of COc1ccc2c3c(c(OCCCN(C)C)nc2c1)-c1ccc(Cl)cc1C3=O = 12.9 µM

###

This listing pairs compounds with measured TGI.
- Tested on: M14 melanoma
- method-summary: NCI tumour cell line growth inhibition, 48 h

Some solved entries appear below for comparison.
                                   compound    result
0  CC1OC(=O)c2ccccc2NC1=O (stereo unspecified)  > 100 µM
1  CSCCC(NC(c1ccccc1)c1ccccc1)[P+](=O)O (stereo unspecified)  > 100 µM
2  O=C1c2ccccc2C(=O)N1c1ccc(OCCN2CCCCC2)cc1  > 100 µM

# TGI of O=c1[nH]c(=S)[nH]c(O)c1/C=C1\C=CC=N1 = 54.8 µM

# TGI of CC(C)(C)OC(=O)N1CCC23CCCC2C(=O)CC=C13 (stereo unspecified) = > 100 µM

# TGI of C#Cc1ccc(NC(=O)c2ccc(/C=C/C(=O)c3nccn3C)cc2)cc1 = 0.96 µM

# TGI of COc1ccc2c(c1)CC[C@@H]1C2CC[C@]2(C)C(=O)NC(=O)CC12 (stereo partly specified) = > 100 µM

# TGI of c1ccc(-c2nc(N3CCNCC3)c3nc(-c4ccccc4)oc3n2)cc1 = 3.71 µM

# TGI of COc1ccc2c(c1)OC13Oc4cc(OC)ccc4C=C1CCCC3=C2 = > 100 µM

# TGI of O=c1cccccc1NCCCCNc1cccccc1=O = > 100 µM

# TGI of C=C(C)[C@H]1CC/C(C)=C/CCC(C)C(=O)CC/C(CO)=C\[C@@H]1O (stereo partly specified) = > 100 µM

###

- Test system: SK-OV-3 ovarian
- method-summary: NCI tumour cell line growth inhibition, 48 h
measured-endpoint: TGI

Some solved entries appear below for comparison.
compound	result
CN1OC(=O)N(C)C1c1ccccc1 (configuration not stated)	> 100 µM
CSCCC(NC(c1ccccc1)c1ccccc1)[P+](=O)O (configuration not stated)	> 100 µM
O=C1c2cc(CCl)sc2C(=O)c2ccsc21	3.36 µM

# TGI of O=C(O)c1ccccc1/C=N\NC1=NCCN1 = > 100 µM

# TGI of Cc1ccc(N2C(=O)/C(=C3\Sc4c(nc(C)[nH]c4=O)N3c3ccccc3)SC2=S)cc1 = 53.5 µM

# TGI of Cc1ccc(Nc2ccc(Nc3ccc(C)cc3)c3c2C(=O)c2c(O)ccc(O)c2C3=O)cc1 = > 100 µM

###

- Test system: OVCAR-4 ovarian
- method-summary: NCI tumour cell line growth inhibition, 48 h
measured-endpoint: TGI (µM)
State just the number; it will be interpreted in µM.

Some solved entries appear below for comparison.
>>> print(df.to_string())
                                 mol_smiles  measured_endpoint  quantitative_result
0  CCNCCNc1cc(-c2ccc(F)cc2)c(C#N)c2nc3ccccc3n12                TGI                 14.5
1  COc1ccc2c3c(c(OCCCN(C)C)nc2c1)-c1ccc(Cl)cc1C3=O                TGI                 17.2
2   Cc1[nH]c2ccccc2c1C=Nc1ccc(Oc2ccccc2)cc1                TGI                 34.6
3      O=c1[nH]c(=S)[nH]c(O)c1/C=C1\C=CC=N1                TGI                   32
4  CC/C=C\CCC/C=C1/C(=O)C=C[C@@H]1C/C=C\CCCC(=O)O                TGI                 22.1

The record that follows has no TGI shown yet.
# TGI of O=Nc1c(O)ccc2ccccc12 = 2.57
